systemTested: Caspase-3 (Homo sapiens)
methodDescription: procaspase-3 activation potency, probe candidates – biochemical, absorbance, PC-3 D3A mutant, powder samples, late-stage follow-up (AID 504816)
assayConditions: recombinant PC-3 D3A, Ac-DEVD-pNA absorbance 405 nm
Active and inactive are the calls of the source.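 Rule for the calls: active = compounds that boost mutant procaspase-3 substrate cleavage with EC50 of 10000 nM or lower; inactive = EC50 above 10000 nM.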
Respond with a class label; see Yes = active, No = inactive

These solved cases illustrate the format of a correct answer.
>>> label("COc1ccccc1Nc1nc2c(C)cccc2cc1C#N")
"No"
>>> label("C=CCn1c(=NC(=O)c2cc(-c3cccs3)nc3ccccc23)sc2cc(S(N)(=O)=O)ccc21")
"Yes"
>>> label("CC(NC(=O)c1cc2cc([N+](=O)[O-])ccc2oc1=O)C1CCCO1 (centres undefined)")
"No"

Now let's try a different one.
Prompt: For `CC(=O)Oc1cccc2c1C(=O)c1c(OC(C)=O)cc(C(=O)O)cc1C2=O` , what call appears in the results of this test?
Completion: No

Every entry's value here was drawn from PubChem BioAssay AID504816.
